B1: Protein S100-G, residues 1 to 79; numbered along this chain, P02633 (parent)
chain: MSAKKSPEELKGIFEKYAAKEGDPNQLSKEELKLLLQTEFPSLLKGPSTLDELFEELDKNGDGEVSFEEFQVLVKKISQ

- Variants of: B1
- Assay: abundance fitness (aPCA) (normalised: wild type 0, dead -1); higher = more abundant; growth selection in yeast, the domain comes from the species named
- Test settings: Bos taurus
Use -0.04 as the dividing line for abundance fitness, with the line itself on the Condition met side and lower values as Condition not met.

> print(dat)
   variant.notation         class.name
1              K76T  Condition not met
2              E52M      Condition met
3              L36S  Condition not met
4               S2D      Condition met
5              G61N  Condition not met

Exam item: decide whether the reported abundance fitness for P7V is at least -0.04.
Condition not met

Is reported abundance fitness greater than or equal to -0.04 here: G61K
Condition not met

Dear colleague, could you confirm whether L50C has abundance fitness at or above -0.04?
Condition met

Hello, I need to know if I77V has measured abundance fitness not below -0.04. Thanks!
Condition not met

API: above_or_equal(metric=abundance fitness, cutoff=-0.04) for item E69C
Condition not met

Would you say L57G shows abundance fitness at minimum -0.04?
Condition not met

Record F54R ; criterion: abundance fitness no lower than -0.04. Met?
Condition not met

abundance fitness >= -0.04 for E30P ?
Condition met

Quick check: does L35K have abundance fitness greater than or equal to -0.04?
Condition not met

Please tell me: is the variant E39D at or over -0.04 in terms of abundance fitness?
Condition not met

Please check the record L34E and state if its abundance fitness is at or above -0.04.
Condition met

Has T49W a recorded abundance fitness greater than or equal to -0.04?
Condition not met

Dear colleague, could you confirm whether L32Q has abundance fitness at or above -0.04?
Condition not met

Is the recorded value of abundance fitness equal to or greater than -0.04 for this variant? F14I
Condition not met

Does the reported abundance fitness for E52N fall at or above the -0.04 mark?
Condition met

Identify whether the reported abundance fitness of the following variant is -0.04 or greater: L35P
Condition not met
